The reader will find reported solvation free energy, 298 K values listed item by item below.
assay: solvent given as SMILES; settings: in N#Cc1ccccc1
Observed Property: solvation free energy, 298 K

>>> df
       molecule        result
0  CC(C)CCC(C)C  -16.1 kJ/mol
1           CCI  -16.7 kJ/mol
2     CCCCCCCCC  -20.8 kJ/mol

----------
The reader will find reported solvation free energy, 298 K values listed item by item below.
test: solvent given as SMILES; settings: in ICI
Observed Property: solvation free energy, 298 K (kcal/mol)

         molecule  numeric_result
0         CCCCCCC           -2.72
1             CCO           -2.83
2    CC(C)CCC(C)C           -2.71
3       CCCCCCCCC           -3.73
4  CC(C)C(C)C(C)C           -2.94
5   C[N+](=O)[O-]           -3.76
6        CCCCCCCC            -3.3
7           CCCCC           -1.67
8          CCCCCC            -2.2

Values from the CombiSolv-Exp solvation set (Vermeire and Green 2021)
